pIC50: −log10 of the molar value.
Ok so here's the combined literature set: pIC50 for MAGL (Homo sapiens).
Lab note: anything with pIC50 at or over 7 counts as Condition met; the rest go in Condition not met.

Dear colleague, could you confirm whether O=C(c1cccc(F)c1Cl)N1CCN2C[C@@](O)(c3ccc(C(F)(F)F)cn3)CC[C@@H]2C1 has pIC50 at or above 7?
Condition not met

Dear colleague, could you confirm whether O=C1N[C@H](CCC(=O)N2CC(c3ccc(C4CC(C(F)(F)F)C4)cc3)C2)CO1 (stereo partly shown) has pIC50 at or above 7?
Condition met

Dear colleague, could you confirm whether O=C(c1ccc2c(ccn2-c2ccc(C(F)(F)F)cc2)c1)N1CC(C2CCN(C(=O)c3cscn3)CC2)C1 has pIC50 at or above 7?
Condition met

Dear colleague, could you confirm whether O=C(c1sc2cc(C(F)(F)F)ccc2c1Cl)N1CC(N2CCC(=O)N(c3nccs3)CC2)C1 has pIC50 at or above 7?
Condition met

Dear colleague, could you confirm whether O=C1N[C@H](CCC(=O)N2CC(NCc3ccc(C(F)(F)F)cc3)C2)CO1 has pIC50 at or above 7?
Condition not met

Dear colleague, could you confirm whether CC1CN(C2CN(C(=O)c3ccc(Cc4ccccc4)cc3)C2)CCN1C(=O)c1nccs1 (stereo not shown) has pIC50 at or above 7?
Condition met

Dear colleague, could you confirm whether O=C1N[C@H](CCC(=O)N2CC(C#Cc3cccc(Cl)c3)C2)CO1 has pIC50 at or above 7?
Condition met

Dear colleague, could you confirm whether O=C1CO[C@H]2CCN(C(=O)N3CC4CC(Oc5ccc(F)cc5Cl)CC4C3)C[C@H]2N1 (stereo partly shown) has pIC50 at or above 7?
Condition met

Dear colleague, could you confirm whether O=C1CO[C@H]2CCN(C(=O)N3CC(COc4cc(=O)oc5ccccc45)C3)C[C@H]2N1 has pIC50 at or above 7?
Condition not met

Dear colleague, could you confirm whether CC1(Cn2cc(-c3ccc(C(=O)N4CCN(c5nc6nc(Cl)ccc6o5)CC4)cc3)nn2)COC1 has pIC50 at or above 7?
Condition not met

Dear colleague, could you confirm whether O=C(c1ccc2c(ccn2-c2cccnc2)c1)N1CC(N2CCN(C(=O)c3ccc[nH]3)CC2)C1 has pIC50 at or above 7?
Condition not met

Dear colleague, could you confirm whether O=C(c1cc2ccc(C(F)(F)F)cc2s1)N1CC(N[C@H]2CCN(C(=O)c3nccs3)C2)C1 has pIC50 at or above 7?
Condition met

Dear colleague, could you confirm whether O=C1N[C@H](CCC(=O)N2CC3(C2)CN(S(=O)(=O)c2cccc(OC(F)(F)F)c2)C3)CO1 has pIC50 at or above 7?
Condition not met

Dear colleague, could you confirm whether O=C1N[C@H](CCC(=O)N2CC(c3ccc(C4CCS(=O)(=O)C4)cc3)C2)CO1 (stereo partly shown) has pIC50 at or above 7?
Condition not met

Dear colleague, could you confirm whether O=C1COc2ccc(C(=O)N3CC(C(c4ccccc4)c4ccccc4)C3)cc2N1 has pIC50 at or above 7?
Condition not met

Dear colleague, could you confirm whether Cc1ccc2oc(N3CCN(C(=O)c4ccc(-c5ncn(C(C)(C)C)n5)c(C(F)(F)F)c4)CC3)nc2n1 has pIC50 at or above 7?
Condition met

Dear colleague, could you confirm whether O=C(c1ccc(-c2cccc(C(F)(F)F)c2)cc1)N1CC(N[C@H]2CCN(C(=O)c3nccs3)C2)C1 has pIC50 at or above 7?
Condition met

Dear colleague, could you confirm whether C#Cc1ccc(CN2CCN(C(=O)n3ccc(NC(C)=O)n3)CC2)cc1 has pIC50 at or above 7?
Condition met

Dear colleague, could you confirm whether O=C(c1nccs1)N1CCN(C2CN(C(=O)c3ccc4c(ccn4-c4ccc(F)cc4)c3F)C2)CC1 has pIC50 at or above 7?
Condition met
